Value source: PubChem BioAssay (NCI)

Test: NCI Yeast Anticancer Drug Screen. Data for the mlh1 strain (AID 171);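 note: 0% = growth of vehicle-treated control cultures of the same strain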
Conditions: S. cerevisiae mlh1 strain growth inhibition; at 1.2 µM; hits give high values
About 79,000 compounds went through this panel and 15% of them were active in at least one assay; those are over-represented in the sample as a whole.
measured-quantity: growth inhibition (%)
Form entry: value (%) — number only.

Task: Item COc1ccc(/C=C/c2sc3ccccc3[n+]2CCCCI)cc1OC has what recorded growth inhibition?
Result: -2

Task: Consider the compound COc1cc([C@@H]2c3cc4c(cc3[C@H](OC3OC5COC(C(C)C)OC5C(O)C3O)C3COC(=O)[C@@H]32)OCO4)cc(OC)c1O (stereo not given in full) and give its measured growth inhibition.
Result: -31

Task: // growth inhibition lookup, key: O=C(C[n+]1ccc2ccccc2c1)c1ccc2ccccc2c1
Result: -15

Task: Look up growth inhibition: OC(/C=C/c1ccccc1)(Cc1cc(-c2ccccc2)n[nH]1)c1ccccc1 (stereo not given)
Result: 10

Task: Please give the measured growth inhibition for this compound: O=C(NNc1ccccc1)C(O)C(O)C(O)C(O)C(O)CO (stereo not given)
Result: 4

* * *

Test: NCI Yeast Anticancer Drug Screen. Data for the sgs1 mgt1 strain (AID 161);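 note: 0% = growth of cultures given vehicle only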
Conditions: S. cerevisiae sgs1 mgt1 strain, at 50.0 µM (retest, dose inferred, filed as 5.0), hits give high values
Compounds without any hit were thinned out: in the full panel of roughly 79,000, 15% have a hit.
measured-quantity: growth inhibition (%)
Return type: number; implicit unit %.

Task: Given the entry CN(C)CCOC1(Cc2ccc(Cl)cc2Cl)CCC(C(C)(C)C)CC1 (configuration not stated) , report its measured growth inhibition.
Result: 100

Task: // growth inhibition lookup, key: CCOC(=N)c1ccc(O)c(OC)c1
Result: -4

Task: Tell me the measured growth inhibition of CNC(=O)OCc1c(COC(=O)NC)c(-c2ccc(Cl)cc2)n2c1CCC2 , please.
Result: 69

Task: Look up growth inhibition for this compound: O=c1c2ccccc2nc(-c2ccccc2)n1O
Result: 99

Task: What value of measured growth inhibition is listed for CC[N+]1(C)CCC(O)(c2ccc(OC)cc2)C(C(=O)c2ccc(OC)cc2)C1 (configuration not stated) ?
Result: 95

Task: Report growth inhibition for C[C@]12CC[C@H](O)CC1=CC[C@@H]1C2CC[C@]2(C)C(=O)NC(=O)CC12 (some centres not stated) please.
Result: 94

Task: Param item = O=C(O)C1CC(c2ccccc2)=NN1c1ccccc1 (configuration not stated) ; retrieve measured growth inhibition.
Result: 25

Task: Which measured growth inhibition value corresponds to CCOc1ccccc1N=Cc1c2ccccc2cc2ccccc12 ?
Result: 98

Task: # query: growth inhibition of entry CCCCCOC(=S)SC(=O)OCC
Result: 97

Task: Would you kindly share the measured growth inhibition for COc1cc(/C=N/Nc2nnc3c4ccccc4c4ncccc4c3n2)cc(OC)c1OC ?
Result: -2

Task: State the recorded growth inhibition for this entry: CCCCNC1CCC2(SCCS2)c2[nH]c3ccccc3c21 (configuration not stated)
Result: 21

Task: // lookup growth inhibition for CC1CC(C)(C)CC(OCCN2CCCCC2)(c2ccccc2)C1 (configuration not stated)
Result: 79

* * *

Experiment: NCI Yeast Anticancer Drug Screen. Data for the wt2 strain (AID 169);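 note: 0% = growth of vehicle-treated yeast cultures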
Settings: S. cerevisiae wt2 strain growth inhibition; at 33.0 µM; hits give high values
About 79,000 compounds went through this panel and 15% of them were active in at least one assay; those are over-represented in the sample as a whole.
For each record, write down the corresponding growth inhibition.
Please give a number only; it is taken to be in %.

Task: Reported growth inhibition for CCN(CC)CCOc1cc(C)c2cc(Cc3ccccc3)ccc2n1 : what is it?
Result: 13

Task: Quick check: growth inhibition of Cc1cccc[n+]1C1CCc2c(ccc3ccccc23)C1=O (centres undefined) ?
Result: -9

Task: I would be grateful if you could share the reported growth inhibition for O=C(NNc1ccccc1)C(O)C(O)C(O)C(O)C(O)CO (centres undefined) .
Result: 39

Task: What measured growth inhibition goes with NC(=O)C(=O)NNc1ccccc1 ?
Result: 60

Task: Dear colleague, I am looking for the recorded growth inhibition of the following compound: O=C(NO)Nc1cc(Cl)cc(Cl)c1
Result: 99

Task: Can you look up the measured growth inhibition of CCc1nc2ccc(NCCN(C)C)c3c(=O)c4ccccc4n1c23 for me?
Result: -31

Task: # lookup: growth inhibition of COc1cc(/C=C2\CCC/C(=C\c3ccc(O)c(OC)c3)C2=O)ccc1O
Result: 27

Task: What does the record list as growth inhibition for CC12C(=O)OC(=O)C(c3ccccc31)c1ccccc12 ?
Result: 9

Task: Which growth inhibition reading was recorded for the compound N#CC(=Nc1ccccc1F)Nc1ccccc1F ?
Result: 2
